System: T-47D spheroids with HUVEC/MSC, viability
Experiment: Anticancer human tumor T-47D cell line growth inhibition [PI3K];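 note: spheroids exposed to agents for seven days before reading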
Conditions: curve of first compound; second compound 0.316 µM
Excerpt: Combinatorial screen of targeted agents with the PI3K inhibitors inavolisib, alpelisib, duvelisib, and copanlisib in multi-cell type tumor spheroids A high-throughput screen of multi-cell type tumor spheroids was designed to identify active combinations of targeted small molecules and PI3K pathway inhibitors. […] Compounds. […] If the clinical Cmax for an agent had not been determined, the highest concentration tested was 10 microM. […]
pIC50: −log10 of the molar value.
pIC50 for assorted compounds

// below: answered compounds
Query :: Provide only the value of recorded pIC50 for Cn1ncnc1[C@H]1c2n[nH]c(=O)c3cc(F)cc(c23)N[C@@H]1c1ccc(F)cc1 + CC(Nc1ccc2c(c1)OCCn1cc(N3C(=O)OCC3C(F)F)nc1-2)C(N)=O
Result :: < 7.00

Query :: Provide only the value of recorded pIC50 for CC(C)n1nc(-c2ccc3oc(N)nc3c2)c2c(N)ncnc21 + CC(Nc1ncnc2nc[nH]c12)c1cc2cccc(Cl)c2c(=O)n1-c1ccccc1
Result :: 7.21

Now look at this entry.
Query :: Provide only the value of recorded pIC50 for Cn1ncnc1[C@H]1c2n[nH]c(=O)c3cc(F)cc(c23)N[C@@H]1c1ccc(F)cc1 + CC(Nc1ncnc2nc[nH]c12)c1cc2cccc(Cl)c2c(=O)n1-c1ccccc1
Result :: < 7.00
